# System: 786-0 renal
# MEASUREMENT DESCRIPTION: NCI tumour cell line growth inhibition, 48 h
METRIC NAME: TGI

Below, each entry is followed by its recorded TGI result.
[[record]]
compound = "CC(=O)OC1CCN(C(=O)c2ccccc2)CC1CC1(c2cc3ccccc3[nH]2)OCCO1 (stereo not given)"
metric_name = "TGI"
observed_value = "> 100 µM"

[[record]]
compound = "Cc1c(Cl)ccc2c1NC(=O)C2(O)C(C(=O)c1ccccc1)c1ccccc1 (stereo not given)"
metric_name = "TGI"
observed_value = "> 100 µM"

[[record]]
compound = "CCOC12OC3=C(CC1CC1=C(CCC1=O)O2)C(=O)CC3 (stereo not given)"
metric_name = "TGI"
observed_value = "> 100 µM"

[[record]]
compound = "C=CC(Cl)(CBr)CCC(Br)=C(C)C (stereo not given)"
metric_name = "TGI"
observed_value = "67.6 µM"

[[record]]
compound = "COCc1nc2c(OC)cc(-c3nc4nc(N5CCN(C)CC5)ccc4[nH]3)c(OC)c2[nH]1"
metric_name = "TGI"
observed_value = "> 100 µM"


Dear colleague, please send me the reported TGI for CC1=NN(c2ccccc2)C(=O)C1N=Nc1ccc([As](=O)(O)O)c(O)c1 (stereo not given) when you can.
> 100 µM

Dear colleague, please send me the reported TGI for `COc1ccc(N(C)S(=O)(=O)c2ccccc2)cc1` when you can.
> 100 µM

Dear colleague, please send me the reported TGI for CCN(CC)CCCC(C)Nc1cnc(C(=O)Nc2ccc(Cl)c3cccnc23)cn1 (stereo not given) when you can.
2.87 µM

Dear colleague, please send me the reported TGI for `CCC(=O)Nc1ccc(N=Cc2cccc(Oc3ccccc3)c2)cc1` when you can.
> 100 µM

Dear colleague, please send me the reported TGI for `Cc1nc(C)c(C(=O)NNC(=O)Cc2ccccc2)cc1C(=O)NNC(=O)Cc1ccccc1` when you can.
> 100 µM

Values compiled from PubChem BioAssay (NCI).
